Readings of IC50, pseudovirus neutralization (TZM-bl assay) for the listed binders
# Target Entity: HIV-1 Env of pseudovirus DU156 (HIV-1)
# Assay Notes: cell-based or functional assay

// known answers, use as guide
1. 1503_H05 (PG16) (TCN-119) (antibody, V domains shown) VH: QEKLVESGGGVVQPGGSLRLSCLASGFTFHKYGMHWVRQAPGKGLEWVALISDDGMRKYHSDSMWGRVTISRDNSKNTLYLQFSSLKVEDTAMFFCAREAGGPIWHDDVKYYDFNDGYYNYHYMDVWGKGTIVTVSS VL: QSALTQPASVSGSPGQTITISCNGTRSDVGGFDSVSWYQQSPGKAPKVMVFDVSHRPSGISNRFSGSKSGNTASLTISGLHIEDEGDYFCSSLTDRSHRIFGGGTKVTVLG | < 0.01 µg/mL
2. 1469_M23 (PG16) (TCN-118) (antibody, V domains shown) VH: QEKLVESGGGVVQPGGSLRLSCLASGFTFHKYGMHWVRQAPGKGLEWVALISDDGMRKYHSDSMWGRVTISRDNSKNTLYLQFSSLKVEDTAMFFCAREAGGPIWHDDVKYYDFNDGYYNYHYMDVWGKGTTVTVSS VL: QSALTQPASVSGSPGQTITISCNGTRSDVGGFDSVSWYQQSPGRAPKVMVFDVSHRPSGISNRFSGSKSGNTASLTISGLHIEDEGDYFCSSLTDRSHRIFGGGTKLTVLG | < 0.01 µg/mL
3. 1489_I13 (PG16) (TCN-120) (antibody, V domains shown) VH: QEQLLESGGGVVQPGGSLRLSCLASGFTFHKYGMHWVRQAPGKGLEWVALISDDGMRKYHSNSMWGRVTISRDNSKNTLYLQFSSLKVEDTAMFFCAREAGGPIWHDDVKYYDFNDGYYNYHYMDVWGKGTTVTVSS VL: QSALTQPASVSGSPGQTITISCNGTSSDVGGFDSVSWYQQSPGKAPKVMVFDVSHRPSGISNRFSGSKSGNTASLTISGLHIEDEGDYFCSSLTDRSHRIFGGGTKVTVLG | < 0.01 µg/mL

Please look at the following binder next.
Task item: Hello, please tell me recorded IC50, pseudovirus neutralization (TZM-bl assay) for this one: 1456_A12 (PG16) (TCN-117) (antibody, V domains shown) VH: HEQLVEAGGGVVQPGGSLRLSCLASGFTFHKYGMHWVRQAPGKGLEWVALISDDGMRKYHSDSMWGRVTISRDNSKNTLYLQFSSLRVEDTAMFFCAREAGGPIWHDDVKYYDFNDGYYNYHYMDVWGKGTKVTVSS VL: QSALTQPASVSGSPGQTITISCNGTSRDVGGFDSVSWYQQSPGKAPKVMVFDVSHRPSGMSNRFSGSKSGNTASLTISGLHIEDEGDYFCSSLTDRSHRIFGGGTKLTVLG
Reply: < 0.01 µg/mL
